B1: RAD51 (parent)
chain: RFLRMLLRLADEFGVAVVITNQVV

Variants of: B1
Test: protein stability index of a GFP-peptide fusion (GPS, HEK-293T) (PSI 1-6); higher = more stable;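 also: lentivirally expressed fusions sorted by FACS into six bins by GFP to DsRed ratio, PSI derived from sequencing read proportions per bin multiplied by bin number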
Details: c terminus: a fixed tail appended
Below, each of the variants is paired with its reported protein stability index value.

| Mutation descriptor | protein stability index |
| --- | --- |
| L9K | 1.98 |
| V23W | 1.98 |
| A10E | 2.5 |
| D11A | 3.02 |
| F13H | 1.86 |
| L7T | 2.6 |
| T20E | 1.53 |
| T20I | 2.75 |
| Q22H | 1.9 |
| V24G | 2.11 |
| V23A | 2.66 |
| Q22G | 2.92 |
| T20L | 2.3 |
| R8D | 2.57 |
| V23M | 2.37 |
| M5F | 2.15 |
| D11K | 3.43 |
| L3V | 3.98 |
| F2M | 2.29 |
| A10Y | 3.62 |
| Q22N | 1.85 |
| V24T | 1.83 |
| V24Q | 2.83 |
| R1F | 1.92 |
